B1: EPB41L3 (parent)
chain: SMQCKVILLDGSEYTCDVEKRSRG

# Variants of: B1
# Test name: protein stability index of a GFP-peptide fusion (GPS, HEK-293T) (PSI 1-6); higher = more stable;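 also: lentivirally expressed fusions sorted by FACS into six bins by GFP to DsRed ratio, PSI derived from sequencing read proportions per bin multiplied by bin number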
# Condition set: c terminus: a fixed tail appended
Listing of entries alongside the reported protein stability index.
Property name: protein stability index

>>> df
      macromolecule_sequence  value_reported
 0  SMQCKVILLDGSEYTCDVEKRSVG            2.88
 1  SMQCKVILLDGSEYTCDVEKTSRG            2.84
 2  SMQCKVILLDGSEYTIDVEKRSRG            2.77
 3  SMQCKVILHDGSEYTCDVEKRSRG            3.44
 4  SMQCKVILLDGSEYTCDVEQRSRG             2.6
 5  SMQCKVILTDGSEYTCDVEKRSRG            3.51
 6  SMQCKVDLLDGSEYTCDVEKRSRG            4.08
 7  SMQCKVILLDGYEYTCDVEKRSRG            1.78
 8  SMQCKVILLDGSEYTCDVEKRYRG            2.38
 9  SMQCKSILLDGSEYTCDVEKRSRG            4.07
10  SMQCKEILLDGSEYTCDVEKRSRG            4.55
11  SMECKVILLDGSEYTCDVEKRSRG            3.81
12  SMQCKVILLDGSEYTCDVEKRSYG            2.22
13  SMQAKVILLDGSEYTCDVEKRSRG            3.93
14  SMQCKVILLDGSEYTCYVEKRSRG            1.61
15  AMQCKVILLDGSEYTCDVEKRSRG            2.86
16  SMQCKVILLPGSEYTCDVEKRSRG            2.66
